These entries and their values trace back to ChEMBL document CHEMBL1681764.

molecular target: Sucrase-isomaltase, intestinal (Rattus norvegicus); assay: Inhibition of rat intestinal isomaltase
Sequence (P23739 1-1013 limits assumed): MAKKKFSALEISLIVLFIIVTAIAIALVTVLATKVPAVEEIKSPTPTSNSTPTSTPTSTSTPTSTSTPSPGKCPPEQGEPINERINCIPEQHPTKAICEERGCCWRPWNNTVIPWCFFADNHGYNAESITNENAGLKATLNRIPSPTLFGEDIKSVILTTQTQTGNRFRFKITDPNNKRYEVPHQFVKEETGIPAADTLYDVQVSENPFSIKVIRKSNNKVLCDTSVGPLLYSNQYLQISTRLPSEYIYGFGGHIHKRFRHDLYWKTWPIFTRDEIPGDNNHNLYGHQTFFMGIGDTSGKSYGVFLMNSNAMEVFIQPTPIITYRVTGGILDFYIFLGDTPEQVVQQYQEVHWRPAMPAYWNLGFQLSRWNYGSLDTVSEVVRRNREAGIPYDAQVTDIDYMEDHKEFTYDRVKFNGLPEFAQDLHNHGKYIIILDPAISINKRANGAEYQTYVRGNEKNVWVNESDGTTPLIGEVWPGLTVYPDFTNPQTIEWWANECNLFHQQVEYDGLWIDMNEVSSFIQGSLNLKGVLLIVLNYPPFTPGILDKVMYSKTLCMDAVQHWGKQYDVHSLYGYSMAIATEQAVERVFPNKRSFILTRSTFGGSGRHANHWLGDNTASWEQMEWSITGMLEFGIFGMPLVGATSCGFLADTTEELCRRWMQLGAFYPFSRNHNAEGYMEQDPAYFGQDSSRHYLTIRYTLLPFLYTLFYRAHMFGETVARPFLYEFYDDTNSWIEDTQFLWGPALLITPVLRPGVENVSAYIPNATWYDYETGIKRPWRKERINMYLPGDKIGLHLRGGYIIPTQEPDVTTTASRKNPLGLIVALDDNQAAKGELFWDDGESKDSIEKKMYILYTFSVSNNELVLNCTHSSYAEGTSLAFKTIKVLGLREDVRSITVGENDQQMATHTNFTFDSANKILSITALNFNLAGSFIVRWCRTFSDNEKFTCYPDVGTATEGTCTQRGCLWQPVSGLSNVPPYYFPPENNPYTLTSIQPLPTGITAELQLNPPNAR
Sequence (P23739 1014-1841 limits assumed): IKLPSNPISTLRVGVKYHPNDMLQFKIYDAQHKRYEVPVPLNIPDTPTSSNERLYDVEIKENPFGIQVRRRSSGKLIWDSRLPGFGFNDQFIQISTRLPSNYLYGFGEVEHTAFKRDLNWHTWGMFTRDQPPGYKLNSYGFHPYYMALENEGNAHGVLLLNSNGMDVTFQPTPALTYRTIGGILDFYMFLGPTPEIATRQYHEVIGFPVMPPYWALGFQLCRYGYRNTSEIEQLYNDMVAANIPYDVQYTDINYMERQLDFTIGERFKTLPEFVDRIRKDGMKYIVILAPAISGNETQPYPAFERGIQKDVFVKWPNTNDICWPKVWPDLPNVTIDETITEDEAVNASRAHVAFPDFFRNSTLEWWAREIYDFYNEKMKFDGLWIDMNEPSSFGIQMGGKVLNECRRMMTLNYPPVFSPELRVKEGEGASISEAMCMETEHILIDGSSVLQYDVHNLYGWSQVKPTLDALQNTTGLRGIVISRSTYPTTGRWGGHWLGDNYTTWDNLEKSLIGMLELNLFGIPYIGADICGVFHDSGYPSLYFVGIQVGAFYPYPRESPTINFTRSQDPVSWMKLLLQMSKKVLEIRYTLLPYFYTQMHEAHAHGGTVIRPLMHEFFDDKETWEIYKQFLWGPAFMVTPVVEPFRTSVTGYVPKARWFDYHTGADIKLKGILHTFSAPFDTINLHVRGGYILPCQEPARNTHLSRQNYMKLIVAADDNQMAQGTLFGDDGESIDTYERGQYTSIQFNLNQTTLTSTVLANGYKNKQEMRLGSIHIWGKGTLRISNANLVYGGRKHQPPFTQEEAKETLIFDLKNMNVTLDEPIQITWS
measure.name: IC50 (nM)

Consider the following illustrative entries.
O=S(=O)([O-])O[C@@H]([C@H](O)[C@@H](O)CO)[C@H](O)C[S@+]1C[C@@H](O)[C@H](O)[C@H]1CO [PONKORANOL] : 2600
OCC(CO)N[C@H]1C[C@](O)(CO)[C@@H](O)[C@H](O)[C@H]1O [VOGLIBOSE] : 2100
OC[C@@H]1[C@@H](O)[C@H](O)C[S@@+]1C[C@@H](O)[C@H](O)[C@H](O)[C@@H](O)CO : 1000
OC[C@@H]1[C@@H](O)[C@H](O)C[S@@+]1C[C@@H](O)[C@@H](O)[C@H](O)[C@H](O)[C@@H](O)CO [NEOKOTALANOL] : 1800
O=S(=O)([O-])O[C@@H]([C@H](O)[C@H](O)[C@@H](O)CO)[C@H](O)C[S+]1C[C@@H](O)[C@H](O)[C@H]1CO (stereo partly drawn) [KOTALANOL] : 5700

1. OC[C@@H](O)C[S@+]1C[C@@H](O)[C@H](O)[C@H]1CO
2. [O-][C@@H](CO)[C@H](O)C[S@+]1C[C@@H](O)[C@H](O)[C@H]1CO [NEOSALACINOL]
Hey, which is lower on measured IC50, 1 or 2 ? Choose, then provide that item's label. 2
(2: 300 nM, 1: 52900 nM)

* * *

biological target: Sucrase-isomaltase, intestinal (Rattus norvegicus); test: Inhibition of rat intestinal sucrase
Parameter IC50: see the listing below.

Consider the following illustrative entries.
O=S(=O)([O-])OC[C@@H](O)C[S@+]1C[C@@H](O)[C@H](O)[C@H]1CO : > 329 µM
OC[C@@H](O)C[S@+]1C[C@@H](O)[C@H](O)[C@H]1CO : > 384 µM

Below: the item to evaluate.
Param item = `O=S(=O)([O-])OC[C@H](O)C[S@+]1C[C@@H](O)[C@H](O)[C@H]1CO` ; retrieve measured IC50. > 329 µM
